- Test system: HeLa
- Assay Name: Induction of ROS production in human HeLa cells after 1 hr by CM-H2DCFDA probe based fluorescence assay
- Assay type: functional, cell-based
Activity calls are given as the source filed them. No cut-off for these calls is given here.
Observable: Activity

CC(=O)OC[C@H]1O[C@@H](S[C@@H]2CC(=O)[C@@H]3OC[C@H]2O3)[C@H](OC(C)=O)[C@@H](OC(C)=O)[C@H]1OC(C)=O; Active
O=C(O)c1ccccc1S[C@@H]1CC(=O)[C@@H]2OC[C@H]1O2; Active
O=C1C[C@@H](S[C@@H]2O[C@H](CO)[C@@H](O)[C@H](O)[C@H]2O)[C@H]2CO[C@@H]1O2; Active
CC(=O)OC[C@H]1O[C@@H](S[C@@H]2CC(=O)[C@@H]3OC[C@H]2O3)[C@H](OC(C)=O)[C@@H](OC(C)=O)[C@@H]1OC(C)=O; Active

---

Assignment: determine reported fold change (FC) for the given compounds.
- Tested on: HeLa
- Assay Name: Effect on NQO1 mRNA expression in human HeLa cells after 4 hrs by RT-PCR method relative to control; note: test concentration or dose not given here
- Type: functional

CC(=O)OC[C@H]1O[C@@H](S[C@@H]2CC(=O)[C@@H]3OC[C@H]2O3)[C@H](OC(C)=O)[C@@H](OC(C)=O)[C@@H]1OC(C)=O; 1.34

# return fold change (FC) for each item in the list
1. O=C1C[C@@H](S[C@@H]2O[C@H](CO)[C@@H](O)[C@H](O)[C@H]2O)[C@H]2CO[C@@H]1O2
2. CC(=O)OC[C@H]1O[C@@H](S[C@@H]2CC(=O)[C@@H]3OC[C@H]2O3)[C@H](OC(C)=O)[C@@H](OC(C)=O)[C@H]1OC(C)=O
3. O=C(O)c1ccccc1S[C@@H]1CC(=O)[C@@H]2OC[C@H]1O2

[1.27, 1.36, 1.61]

---

Assignment: determine reported Activity for the given molecules.
- System: HeLa
- Assay Name: Induction of oxidative stress in human HeLa cells assessed as reduction in thioredoxin reductase at IC50 after 14 hrs by DTNB/bradford reagent based colorimetric method
- Assay type: functional
- Design: scale not given: the % may be the effect or the level left
Answers are plain numbers, in %.

O=C1C[C@@H](S[C@@H]2O[C@H](CO)[C@@H](O)[C@H](O)[C@H]2O)[C@H]2CO[C@@H]1O2; 3.86

# return Activity for each item in the list
1. O=C(O)c1ccccc1S[C@@H]1CC(=O)[C@@H]2OC[C@H]1O2
2. CC(=O)OC[C@H]1O[C@@H](S[C@@H]2CC(=O)[C@@H]3OC[C@H]2O3)[C@H](OC(C)=O)[C@@H](OC(C)=O)[C@@H]1OC(C)=O
3. CC(=O)OC[C@H]1O[C@@H](S[C@@H]2CC(=O)[C@@H]3OC[C@H]2O3)[C@H](OC(C)=O)[C@@H](OC(C)=O)[C@H]1OC(C)=O

1: 7.5; 2: 18.3; 3: 9.2

---

- Test system: HeLa
- Assay Name: Effect on NCOA7 mRNA expression in human HeLa cells after 4 hrs by RT-PCR method relative to control; note: test concentration or dose not given here
- Format: functional
Assignment: determine reported fold change (FC) for the given compounds.
Numbers only.

Examples with their reported fold change (FC) follow.
CC(=O)OC[C@H]1O[C@@H](S[C@@H]2CC(=O)[C@@H]3OC[C@H]2O3)[C@H](OC(C)=O)[C@@H](OC(C)=O)[C@@H]1OC(C)=O; 0.43
O=C1C[C@@H](S[C@@H]2O[C@H](CO)[C@@H](O)[C@H](O)[C@H]2O)[C@H]2CO[C@@H]1O2; 0.35
O=C(O)c1ccccc1S[C@@H]1CC(=O)[C@@H]2OC[C@H]1O2; 0.51

--- query ---
API: value(readout= fold change (FC), system= HeLa, query= CC(=O)OC[C@H]1O[C@@H](S[C@@H]2CC(=O)[C@@H]3OC[C@H]2O3)[C@H](OC(C)=O)[C@@H](OC(C)=O)[C@H]1OC(C)=O )
0.37
